Origin of measurements: patent US11053204B2

# System: oilseed rape (Brassica napus)
# assay-info: Test C preemergence, plant response rating
# Format: in vivo
# reported-conditions: Preemergence; 62 g ai/ha; scale 0 to 100
property-measured: Plant response rating, Oilseed Rape
No unit in the answer, please; the number alone is enough.

Prompt: What does the record list as Plant response rating, Oilseed Rape for "O=C(CCCC(F)(F)F)c1c(Br)cccc1Oc1ncc(Cl)cn1" ?
Response: 100

Prompt: What does the record list as Plant response rating, Oilseed Rape for "O=C(OCCC(F)(F)F)c1c(Br)cccc1Oc1ncc(Br)cn1" ?
Response: 85

Prompt: What does the record list as Plant response rating, Oilseed Rape for "O=C(CCC(F)(F)F)c1c(Br)cccc1Oc1ncc(Cl)cn1" ?
Response: 100

Prompt: What does the record list as Plant response rating, Oilseed Rape for "N#Cc1cccc(Oc2ncc(Cl)cn2)c1C(=O)OCCC(F)(F)F" ?
Response: 100

Prompt: What does the record list as Plant response rating, Oilseed Rape for "C=C(Br)COC(=O)c1c(Br)cccc1Oc1ncc(Cl)cn1" ?
Response: 0

---

# Tested on: Italian ryegrass (Lolium multiflorum)
# assay-info: Test A postemergence, visual injury rating
# Type: in vivo
# reported-conditions: 500 g ai/ha, 0 is no effect, 100 is complete control
# Excerpt: […]
property-measured: Ryegrass, Italian plant response rating (0 to 100 scale)
No unit in the answer, please; the number alone is enough.

Prompt: What does the record list as Ryegrass, Italian plant response rating (0 to 100 scale) for "CCCC(=O)c1c(Br)cccc1Oc1ncc(Cl)cn1" ?
Response: 70

---

Reported Plant response rating, Velvetleaf is given for each of the following molecules.
# Tested on: velvetleaf (Abutilon theophrasti)
# assay-info: Test C preemergence, plant response rating
# Format: in vivo
# reported-conditions: Preemergence, 125 g ai/ha; scale of 0 to 100
No unit in the answer, please; the number alone is enough.

Sample answers from the record:
FC(F)(F)CCCCc1c(Br)cccc1Oc1ncc(Cl)cn1
50
CCCC(=O)c1c(Br)cccc1Oc1ncc(Cl)cn1
25
FC(F)(F)CCCc1c(Br)cccc1Oc1ncc(Cl)cn1
60

Now look at this entry.
Prompt: What reported Plant response rating, Velvetleaf corresponds to "O=C(OCCC(F)(F)F)c1c(Br)cccc1Oc1ncc(Br)cn1" on velvetleaf (Abutilon theophrasti)?
Response: 100

---

# System: giant foxtail (Setaria faberii)
# assay-info: Test A postemergence, visual injury rating
# Assay type: in vivo
# reported-conditions: 125 g ai/ha, 0 to 100 scale, 0 is no effect, 100 is complete control, approximately 10 days
Reported Foxtail, Giant plant response rating is given for each of the following compounds.
No unit in the answer, please; the number alone is enough.

FC(F)(F)CCCCc1c(Oc2ncc(Cl)cn2)cccc1C1CC1
20

Prompt: What does the record list as Foxtail, Giant plant response rating for "O=C(OCCC(F)(F)F)c1c(Oc2ncc(Cl)cn2)cccc1C(F)(F)F" ?
Response: 50

Prompt: What does the record list as Foxtail, Giant plant response rating for "N#CCc1ccccc1Oc1ncc(Cl)cn1" ?
Response: 0

Prompt: What does the record list as Foxtail, Giant plant response rating for "O=C(OCCC(F)(F)F)c1cc(Br)ccc1Oc1ncc(Cl)cn1" ?
Response: 0

---

# Test system: Italian ryegrass (Lolium multiflorum)
# assay-info: Test A preemergence, visual injury rating
# Format: in vivo
# reported-conditions: Lolium multiflorum, pre-emergence, 240 h, 125 g ai/ha, 0 to 100 scale (0 no effect, 100 complete control), read-out: Ryegrass, Italian plant response rating
property-measured: pest or weed control at 125 g/ha
Respond with the figure and its unit, in that order.

Prompt: What does the record list as pest or weed control at 125 g/ha for N#Cc1cccc(Oc2ncc(Cl)cn2)c1CCCCC(F)(F)F [Compound 73] ?
Response: 50%

Prompt: What does the record list as pest or weed control at 125 g/ha for O=C(OCCC(F)(F)F)c1cc(C(F)(F)F)ccc1Oc1ncc(Cl)cn1 [Compound 53] ?
Response: 0%

Prompt: What does the record list as pest or weed control at 125 g/ha for CCCOC(=O)c1c(Br)cccc1Oc1ncc(Cl)cn1 [Compound 13] ?
Response: 10%

Prompt: What does the record list as pest or weed control at 125 g/ha for O=C(OCCC(F)(F)F)c1c(Br)cccc1Oc1ncc(Cl)cn1 [Compound 26] ?
Response: 70%

Prompt: What does the record list as pest or weed control at 125 g/ha for CC(CC(F)(F)F)OC(=O)c1c(Br)cccc1Oc1ncc(Cl)cn1 (centres unmarked) [Compound 16] ?
Response: 0%

---

# Test system: chickweed (common chickweed, Stellaria media)
# assay-info: Test C postemergence, plant response rating
# Format: in vivo
# reported-conditions: 31 g ai/ha, scale 0 to 100
Would you mind labelling by Plant response rating, Chickweed? At or over 60 is yes, under is no.

O=C(CCCCC(F)(F)F)c1c(Br)cccc1Oc1ncc(Cl)cn1 [Compound 82]
yes
FC(F)(F)CCCCc1c(Cl)cccc1Oc1ncc(Cl)cn1 [Compound 137]
no
O=C(OCC(F)(F)F)c1c(Br)cccc1Oc1ncc(Cl)cn1 [Compound 35]
no
N#CC(CCCC(F)(F)F)c1ccccc1Oc1ncc(Cl)cn1 (stereo not drawn) [Compound 144]
no
CCCC(=O)c1c(Br)cccc1Oc1ncc(Cl)cn1 [Compound 75]
yes
O=C(CCCC(F)(F)F)c1c(Br)cccc1Oc1ncc(Cl)cn1 [Compound 77]
yes
O=C(CCCC(F)(F)F)c1c(Cl)cccc1Oc1ncc(Cl)cn1 [Compound 143]
yes
O=C(CCC(F)(F)C(F)(F)F)c1c(Br)cccc1Oc1ncc(Cl)cn1 [Compound 110]
yes

Then there is this molecule:
Prompt: API: above_or_equal(metric=Plant response rating, Chickweed, cutoff=60) for item N#Cc1cccc(Oc2ncc(Cl)cn2)c1CCCC(F)(F)F [Compound 72]
Response: yes

---

# System: wheat (Triticum aestivum)
# assay-info: Test A postemergence, visual injury rating
# Assay type: in vivo
# reported-conditions: 125 g ai/ha, 0 to 100 scale, 0 is no effect, 100 is complete control, approximately 10 days
Reported Wheat plant response rating is given for each of the following compounds.
No unit in the answer, please; the number alone is enough.

Sample answers from the record:
CC(=NOC(C)C)c1c(Cl)cccc1Oc1ncc(Cl)cn1
0
O=C(OCCC(F)(F)F)c1c(OCC(F)(F)F)cccc1Oc1ncc(Cl)cn1
0
FC(F)(F)CCCCc1c(Br)cccc1Oc1ncc(Cl)cn1
40
CCCCCC(C#N)c1ccccc1Oc1ncc(Cl)cn1 (stereo not shown)
0
N#Cc1cccc(Oc2ncc(Cl)cn2)c1C(=O)CCCCC(F)(F)F
0

Prompt: What does the record list as Wheat plant response rating for "O=C(CCCC(F)(F)F)c1c(Oc2ncc(Cl)cn2)cccc1C(F)(F)F" ?
Response: 20

Prompt: What does the record list as Wheat plant response rating for "O=C(CCCC(F)(F)F)c1c(Br)cccc1Oc1ncc(Cl)cn1" ?
Response: 10

Prompt: What does the record list as Wheat plant response rating for "O=C(SCC(F)(F)F)c1c(Br)cccc1Oc1ncc(Cl)cn1" ?
Response: 0

Prompt: What does the record list as Wheat plant response rating for "CCCCC(=O)c1c(Br)cccc1Oc1ncc(Cl)cn1" ?
Response: 20

Prompt: What does the record list as Wheat plant response rating for "CCCCOC(=O)c1c(Br)cccc1Oc1ncc(Cl)cn1" ?
Response: 0

Prompt: What does the record list as Wheat plant response rating for "CCCCCOC(=O)c1c(Br)cccc1Oc1ncc(Cl)cn1" ?
Response: 0

Prompt: What does the record list as Wheat plant response rating for "O=Cc1c(Cl)cccc1Oc1ncc(Cl)cn1" ?
Response: 0

Prompt: What does the record list as Wheat plant response rating for CCCCC(C#N)c1ccccc1Oc1ncc(Cl)cn1 (stereo not shown) ?
Response: 10

Prompt: What does the record list as Wheat plant response rating for "O=C(SCCC(F)(F)F)c1c(Br)cccc1Oc1ncc(Cl)cn1" ?
Response: 0

Prompt: What does the record list as Wheat plant response rating for N#CC(CCCC(F)(F)F)c1ccccc1Oc1ncc(Cl)cn1 (stereo not shown) ?
Response: 60

Prompt: What does the record list as Wheat plant response rating for "O=C(CCC(F)(F)F)c1c(Br)cccc1Oc1ncc(Cl)cn1" ?
Response: 20

Prompt: What does the record list as Wheat plant response rating for "N#Cc1cccc(Oc2ncc(Cl)cn2)c1COCCCC(F)(F)F" ?
Response: 0

Prompt: What does the record list as Wheat plant response rating for "CC(=NOC(C)C)c1c(F)cccc1Oc1ncc(Cl)cn1" ?
Response: 0

Prompt: What does the record list as Wheat plant response rating for "O=C(NCCC(F)(F)F)c1c(Br)cccc1Oc1ncc(Cl)cn1" ?
Response: 0

Prompt: What does the record list as Wheat plant response rating for CCCC(C#N)c1c(Br)cccc1Oc1ncc(Cl)cn1 (stereo not shown) ?
Response: 0

Prompt: What does the record list as Wheat plant response rating for "O=C(OCCC1CC1)c1c(Br)cccc1Oc1ncc(Cl)cn1" ?
Response: 0

Prompt: What does the record list as Wheat plant response rating for "CCSC(=O)c1c(Br)cccc1Oc1ncc(Cl)cn1" ?
Response: 0
